Target: human S1P1 receptors (Homo sapiens, UniProt P21453)
Sequence (P21453 whole entry): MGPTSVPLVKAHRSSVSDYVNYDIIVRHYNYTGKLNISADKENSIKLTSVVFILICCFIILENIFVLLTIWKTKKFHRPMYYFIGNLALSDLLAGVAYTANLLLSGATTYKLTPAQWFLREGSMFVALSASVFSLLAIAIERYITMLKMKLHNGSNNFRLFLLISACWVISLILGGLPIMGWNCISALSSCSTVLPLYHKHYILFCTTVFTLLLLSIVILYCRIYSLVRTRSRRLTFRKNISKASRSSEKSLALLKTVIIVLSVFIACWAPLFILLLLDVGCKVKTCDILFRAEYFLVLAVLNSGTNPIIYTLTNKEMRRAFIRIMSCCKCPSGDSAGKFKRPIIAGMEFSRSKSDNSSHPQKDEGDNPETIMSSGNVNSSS
Assay: S1P1R antagonist assay (fluorescent membrane potential dye, cAMP readout)
Details: HEK293 cells expressing human S1P1 receptors and CNG channel; 500 nM NECA; S1P1R agonist 10 nM; 90 minutes; read-out: EC50 or IC50 value
Protocol: The S1P1R antagonist assay is a fluorescent membrane potential dye measurement assay, indicative of intracellular cAMP changes due to G protein-coupled receptor activation. […] Membrane depolarization is detected with a membrane potential dye. […] Assay plates were read with a PerkinElmer EnVision reader (Excitation 350 nm, Emission 590 nm) at time T=0 minutes, before compound addition and at time T=90 minutes. The signal was calculated as the ratio T90/T0. […]
pIC50: −log10 of the molar value.
Catalogue of pIC50 readings, one per entry.

Some molecules with known pIC50 results, for comparison:
[
  {
    "molecule": "CC(=O)CCC(=O)NC(COCc1ccccc1)C(=O)Nc1ccc(Oc2ccccc2)cc1 (stereo not shown) [Compound 347]",
    "pIC50": "< 6.00"
  },
  {
    "molecule": "O=C(CCCc1ccccc1)NC(COCc1ccccc1)C(=O)Nc1ccc(Oc2ccccc2)cc1 (stereo not shown) [Compound 300]",
    "pIC50": "< 6.00"
  },
  {
    "molecule": "O=C(NC(COCc1ccccc1)C(=O)Nc1ccc(Oc2ccccc2)cc1)C1Cc2ccccc2C1 (stereo not shown) [Compound 188]",
    "pIC50": "6.00 to 6.52"
  }
]

# context switch: different molecule, same pIC50
[Q] Supply reported pIC50 belonging to this molecule: O=C(Cn1ccnc1)N[C@@H](COCc1ccccc1)C(=O)Nc1ccc(Oc2ccc(F)cc2)cc1 [Compound 134]
[A] ≥ 6.52

###

Reported values of pIC50 for individual entries
Molecular target: human S1P1 receptors (Homo sapiens, UniProt P21453)
Test: S1P1R antagonist assay (fluorescent membrane potential dye, cAMP readout)
Settings: HEK293 cells expressing human S1P1 receptors and CNG channel; 500 nM NECA; S1P1R agonist 10 nM; 90 minutes; read-out: EC50 or IC50 value
pIC50: −log10 of the molar value.

[
  {
    "molecule": "O=C(Cc1cccc2ccccc12)NC(COCc1ccccc1)C(=O)Nc1ccc(Oc2ccccc2)cc1 (stereo not drawn)",
    "reported measurement": "< 6.00"
  },
  {
    "molecule": "CCOCCC(=O)N1C[C@H](Cc2ccccc2)C[C@H]1C(=O)Nc1ccc(Oc2ccc(F)cc2)cc1",
    "reported measurement": "≥ 6.52"
  },
  {
    "molecule": "COc1cccc(C[C@@H]2C[C@@H](C(=O)Nc3ccc(Oc4ccc(F)cc4)cc3)N(C(=O)Cn3ccnn3)C2)c1",
    "reported measurement": "≥ 6.52"
  }
]

[Q] Name the recorded pIC50 of the item O=C(NC(COCc1ccccc1)C(=O)Nc1ccc(Oc2ccccc2)cc1)c1cccc(O)n1 (stereo not drawn) in your answer.
[A] < 6.00

[Q] Give me measured pIC50, please, for this molecule: O=C(CCC1CCCCC1)NC(COCc1ccccc1)C(=O)Nc1ccc(Oc2ccccc2)cc1 (stereo not drawn)
[A] < 6.00

[Q] Look up pIC50 of Cc1ccccc1C[C@@H]1C[C@@H](C(=O)Nc2ccc(Oc3ccc(F)cc3)cc2)N(C(=O)Cn2nccn2)C1 and report it.
[A] ≥ 6.52

[Q] Give a short answer stating reported pIC50 for O=C(Cc1c[nH]cn1)N[C@@H](COCc1ccccc1)C(=O)Nc1ccc(Oc2ncc(Br)s2)cc1 .
[A] ≥ 6.52

[Q] Read off the recorded pIC50 for O=C(Nc1ccc(Oc2ccc(F)cc2)cc1)[C@@H]1CN(Cc2ccccc2)CCN1C(=O)Cn1cncn1
[A] 6.00 to 6.52

These data points were gathered from patent US8791102B2.
